Could you please report measured self-cleavage kobs at 640 uM GlcN6P for the items listed next?
B1: glmS ribozyme (parent)
chain: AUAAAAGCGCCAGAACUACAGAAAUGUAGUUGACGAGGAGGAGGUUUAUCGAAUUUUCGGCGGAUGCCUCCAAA

Variants of: B1
ASSAY_DETAILS: self-cleavage kobs at 640 uM GlcN6P; higher = faster cleavage; RNA array
MEASUREMENT_SETUP: with glucosamine-6-phosphate
Fewer inactive variants are shown than the library holds.

Need self-cleavage kobs at 640 uM GlcN6P for each of these variants.
1. C8A U55G A64U
2. U65G

[A]
1. < 1e-05 s⁻¹
2. 0.000813 s⁻¹

Need self-cleavage kobs at 640 uM GlcN6P for each of these variants.
1. G35A G37A U46A G51C G59U
2. G13A C67G
3. C11A U31A
4. G13A G35A
5. G13C A36G A39U
6. U31A U47C G51A G66A
7. G37U A52U

[A]
["< 1e-05 s⁻¹", "2.71e-05 s⁻¹", "5.42e-05 s⁻¹", "< 1e-05 s⁻¹", "< 1e-05 s⁻¹", "< 1e-05 s⁻¹", "< 1e-05 s⁻¹"]
